TARGET SYSTEM: B7-H4 purified monomeric recombinant human protein (Homo sapiens, UniProt Q7Z7D3)
Sequence (Q7Z7D3 25-259): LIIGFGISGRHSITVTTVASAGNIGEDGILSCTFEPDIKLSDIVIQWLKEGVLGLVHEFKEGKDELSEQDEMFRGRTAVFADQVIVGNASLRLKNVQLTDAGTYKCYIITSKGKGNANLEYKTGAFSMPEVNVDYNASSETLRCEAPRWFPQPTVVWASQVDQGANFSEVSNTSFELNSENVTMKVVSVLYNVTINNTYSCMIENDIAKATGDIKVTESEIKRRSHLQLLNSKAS
ASSAY METHOD TEXT: SPR
ASSAY METRIC: pKd
Just the number, please; pKd means minus log10 of the concentration in mol/L.

B08 (scFv, V domains shown) VH: EVQLVESGGGVVQPGRSLRLSCAASGFTFSDRAMNWVRQAPGKGLEWVSAISASGASRYYADSVKGRFTISRDNSKNTLYLQMNSLRAEDTAVYYCARKRWYGMDVWGQGTTVTVSS VL: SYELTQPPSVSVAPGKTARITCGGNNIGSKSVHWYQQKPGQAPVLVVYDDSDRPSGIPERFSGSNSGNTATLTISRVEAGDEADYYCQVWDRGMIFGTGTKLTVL : 9.93
A12 (scFv, V domains shown) VH: EVQLVESGGGVVQPGRSLRLSCAASGFTFDNRAMNWVRQAPGKGLEWVSAISSSGSTMYYADSVKGRFTISRDNSKNTLYLQMNSLRAEDTAVYYCARKRWYGMDVWGQGTTVTVSS VL: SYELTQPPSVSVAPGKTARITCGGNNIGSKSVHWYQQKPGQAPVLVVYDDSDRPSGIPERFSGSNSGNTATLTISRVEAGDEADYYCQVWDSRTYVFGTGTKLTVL : 9.86

Switching to the query record.
Q: Using known records, supply pKd for B04 (scFv, V domains shown) VH: EVQLVESGGGVVQPGRSLRLSCAASGFSFSSRAMNWVRQAPGKGLEWVSAVSGSGSGTYYADSVKGRFTISRDNSKNTLYLQMNSLRAEDTAVYYCARKRWYGMDVWGQGTTVTVSS VL: SYELTQPPSVSVAPGKTARITCGGNNIGLKSVHWYQQKPGQAPVLVVYDDSDRPSGIPERFSGSNSGNTATLTISRVEAGDEADYYCQVWDRGMIFGTGTKLTVL
Ans: 9.76

Entry source: paper PMC9467613
